FYI, the data here is from PubChem BioAssay.

Each item that follows carries a reported z-score.
# MEASUREMENT_DESCRIPTION: inhibitors of hydroxyurea-induced Chk1 phosphorylation, primary screen, imaging, HeLa, phospho-Chk1 nuclear intensity (AID 1187); also: test concentration not given here
# TEST_SETTINGS: hydroxyurea-induced phospho-Chk1 immunofluorescence imaging, higher = more signal
Active and inactive are the calls of the source. No rule for the calls is given here.
ASSAY_ENDPOINT: z-score

- CC1(C)OB(/C=C\CC(OC(=O)c2ccncc2)c2ccccc2)OC1(C)C (stereo not given): 0.415 (inactive)
- C=CCNC(=O)[C@@H]1[C@H]2C(=O)O[C@H](c3ccccc3)[C@H](c3ccccc3)N2[C@H](c2ccc(OCCO)cc2)[C@@]12C(=O)Nc1ccc(C#CC3=CCCCC3)cc12: 0.273 (inactive)
- C[N+](C)(C)CCCC[C@@H]1NC(=O)[C@H]2C[C@@H](C(=O)O)[C@@H](c3ccc(O)cc3)N2C1=O: -0.313 (inactive)
- [N-]=[N+]=NCc1ccccc1C[C@@]1(C(=O)NCCN2CCOCC2)N=C(c2ccc(OCCCO)cc2)O[C@@H]1c1ccccc1: 0.47 (inactive)
- CC(C)C[C@@H]1NC(=O)[C@H]2C[C@@H](C(=O)O)[C@@H](c3cccc(OCCO)c3)N2C1=O: -0.134 (inactive)
- O=C1c2ccccc2[C@](Cc2ccccc2I)(C(=O)NCCN2CCOCC2)[C@H](c2ccc(CO)cc2)N1Cc1ccccc1C(F)(F)F: -0.105 (inactive)
- N#Cc1ccc(NN2C(C(O)c3ccc(B(O)O)cc3)C=CC3CN(c4ccccc4)C(=O)C32)cc1 (stereo not given): -0.622 (inactive)
- CC(C)(C)OC(=O)CC[C@]1(C(N)=O)N=C(c2ccc(OCCCO)cc2)O[C@H]1c1ccccc1N=[N+]=[N-]: -0.285 (inactive)
- O=C1O[C@H](c2ccccc2)[C@H](c2ccccc2)N2[C@H]1[C@@H](C(=O)N1CCN(c3ncccn3)CC1)[C@]1(C(=O)Nc3ccc(C#CC4(O)CCCCCC4)cc31)[C@H]2c1ccc(O)cc1: -0.101 (inactive)
- C=CC[C@]1(C(=O)NCC(O)CO)N=C(c2ccc(OCCCO)cc2)O[C@H]1c1ccccc1CN=[N+]=[N-] (stereo not given in full): -0.482 (inactive)
- O=C1NC(=O)C2C1C=CC(C(O)C(O)CO)N2Nc1ccccn1 (stereo not given): -0.239 (inactive)
- CCOC(=O)C[C@H]1[C@H](OC(=O)c2ccc(-c3ccccc3)cc2)[C@@H](NC(=O)c2ccc(-c3ccccc3)cc2)c2cc(OCCCO)ccc2N1C(=O)c1ccccc1: 0.205 (inactive)
- COC(=O)[C@@]1(Cc2ccc(F)cc2)[C@H]2c3cc(C(=O)N4CCCC4)n(CCc4c[nH]c5cc(F)ccc45)c3C[C@H]2CN1C(=O)c1ccccc1: -0.589 (inactive)
- O=C1NC(=O)C2C1C=CC(C(O)C1CCCCC1)N2Nc1ccccn1 (stereo not given): 1.39 (inactive)
- CCOC(=O)C1=CCC(c2ccncc2)N(S(=O)(=O)c2ccc(C)cc2)C1 (stereo not given): 0.104 (inactive)
- COC(=O)[C@]1(Cc2ccccc2N=[N+]=[N-])N=C(c2ccc(OCCCO)cc2)O[C@@H]1c1ccccc1CN=[N+]=[N-]: -0.437 (inactive)
- CN(C)CCCC[C@@H]1NC(=O)[C@H]2C[C@@H](C(=O)NCCCCCCNC(=O)CS)[C@@H](c3cccc(OCCO)c3)N2C1=O: 0.68 (inactive)
- C=CCC(OC(C)=O)[C@@H]1[C@@H](N(Cc2ccc(-c3ccccc3)cc2)C(=O)Cc2ccc(OC)cc2)c2cc(OCCCO)ccc2N1C(=O)Cc1ccc(OC)cc1 (stereo not given in full): 0.763 (inactive)
- CC(C)c1ccc(NN2C(C(O)c3ccccc3)C=CC3C(=O)N(c4ccccc4)C(=O)C32)cc1 (stereo not given): -1.77 (inactive)
- COc1cc(Cc2cc3c(c(CCc4ccccc4)n2)[Si](C(C)C)(C(C)C)O[C@H]3c2ccccc2)cc(OC)c1OC: -0.286 (inactive)
- COc1ccc([Si](C)(C)[C@H]2[C@H](CC(=O)N3CCC[C@H]3CO)O[C@@]3(C(=O)N(C)c4ccccc43)[C@@H]2C)cc1: -0.766 (inactive)
- CCCCCCc1nc(-c2ccc(OC)nc2)c(C)c2c1[Si](C(C)C)(C(C)C)OC2: 0.0171 (inactive)
- O=C1OC[C@@H](c2ccccc2)n2cc(/C=C/c3ccccc3)cc21: -0.268 (inactive)
- O=C(NCCN1CCOCC1)[C@@H]1c2ccccc2C(=O)N(CC23CC4CC(CC(C4)C2)C3)[C@H]1c1ccc(CO)cc1: 0.707 (inactive)
- O=C1NC(=O)C2C1C=CC(C(O)c1ccc(F)cc1)N2Nc1ccc(Cl)cc1Cl (stereo not given): 0.116 (inactive)
- Cc1ccc(S[C@]2(C(=O)NC(C)C)CC(=O)N(Cc3ccccc3)[C@@H]2c2ccc(CO)cc2I)cc1: -0.268 (inactive)
- O=C(CS)NCCCCCCNC(=O)[C@H]1C[C@H]2C(=O)NCC(=O)N2[C@H]1c1cccc(OCCO)c1: -0.529 (inactive)
- COCCOC(=O)N1C(=O)[C@@]2(c3cc(C#CC4=CCCCC4)ccc31)[C@H](c1ccc(O)cc1)N1[C@H](c3ccccc3)[C@H](c3ccccc3)OC(=O)[C@H]1[C@@H]2C(=O)N1CCc2cc(OC)c(OC)cc2C1: 0.404 (inactive)
- CC(C)c1ccc(NN2C(C(O)C(C)c3ccccc3)C=CC3C(=O)N(c4ccccc4)C(=O)C32)cc1 (stereo not given): 0.739 (inactive)
- COc1cc2c(cc1O)C(C)N(Cc1sc3ccccc3c1Cl)CC2 (stereo not given): -0.817 (inactive)

====

# MEASUREMENT_DESCRIPTION: S. cerevisiae growth modulation with rapamycin, primary screen, strain BY4716, OD600, 96 h (AID 1091); also: test concentration not given here
# TEST_SETTINGS: higher = more signal, called active from +8 up or from −8 down
The source made the active and inactive calls.
Each item that follows carries a reported z-score.
ASSAY_ENDPOINT: z-score

- CC(C)(C)OC(=O)CC[C@@]1(C(=O)N2CCOCC2)N=C(c2ccc(OCCCO)cc2)O[C@@H]1c1ccccc1CN=[N+]=[N-]: -0.654 (inactive)
- COc1ccc(C(=O)Nc2cccc(CN3C(=O)[C@]4(O[C@H](CC(=O)N(CCO)Cc5ccccc5)[C@@H]([Si](C)(C)c5ccc(OC)cc5)[C@@H]4C)c4ccccc43)c2)cc1: 3.65 (inactive)
- COc1ccc(CCNC(=O)[C@@H]2c3ccccc3C(=O)N(C(C)C)[C@H]2c2ccc(CO)cc2)cc1: -0.0884 (inactive)
- COc1ccc([Si](C)(C)[C@@H]2[C@@H](CC(=O)N3Cc4ccccc4C[C@H]3CO)O[C@]3(C(=O)N(Cc4ccc(I)cc4)c4ccccc43)[C@H]2C)cc1: 2.07 (inactive)

====

Each item that follows carries a reported composite z-score.
# TESTED_TARGET: Pro-neuregulin-1, membrane-bound isoform (Homo sapiens)
# MEASUREMENT_DESCRIPTION: NRG1 binders on small-molecule microarrays, primary screen, psychiatric disease protein project, biochemical, small-molecule microarray, fluorescence 635/667 (AID 1075);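 also: score combines 667 nm spot fluorescence with signal to noise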
# TEST_SETTINGS: NRG1 binding, 635 nm fluorescence, higher = more signal
ASSAY_ENDPOINT: composite z-score

* COC(=O)Cn1c(C(=O)N(C)C)cc2c1C[C@H]1CN(C(=O)c3ccccc3)[C@@](Cc3ccccc3)(C(=O)OC)[C@@H]21 | 1.5
* O=C1N(Cc2ccccc2)Cc2ccccc2C[C@@]12COC(c1ccc(OCCCO)cc1)=N2 | 0.605
* CC(=O)NCCCC[C@@H]1NC(=O)[C@H]2C[C@@H](C(=O)NCCCCCN)[C@@H](c3ccc(O)cc3)N2C1=O | 0.0529
* CCCN1C(=O)[C@@]2(c3ccc([N+](=O)[O-])cc3)CC(=O)N(C3CCCCC3)[C@@H]2c2ccc(CO)cc21 | -0.154
* [N-]=[N+]=Nc1ccccc1C[C@]1(C(=O)N2CCCCC2)N=C(c2ccc(OCCCO)cc2)O[C@H]1c1ccccc1 | 0.733
* CC(C)C[C@@H]1NC(=O)[C@@H]2C[C@H](C(=O)NCCCCCCNC(=O)CS)[C@H](c3ccc(O)cc3)N2C1=O | 1.35
* O=C1O[C@H](c2ccccc2)[C@H](c2ccccc2)N2[C@H]1[C@@H](C(=O)N1CCCCCCC1)[C@]1(C(=O)Nc3ccc(C#CCCO)cc31)[C@H]2c1ccc(O)cc1 | 2.79

====

Each item that follows carries a reported z-score.
# MEASUREMENT_DESCRIPTION: HepG2 liver cancer cell viability effects, profiling panel, resazurin fluorescence, 24 h, PK04 Diversity Set (AID 1172); also: test concentration not given here
# TEST_SETTINGS: higher = more signal
ASSAY_ENDPOINT: z-score

* O=C1O[C@H](c2ccccc2)[C@H](c2ccccc2)N2[C@H]1[C@@H](C(=O)O)[C@]1(C(=O)Nc3ccccc31)[C@H]2c1ccc(OCCO)cc1 | 0.0019
* CC(C)C[C@@H]1NC(=O)[C@@H]2C[C@H](C(=O)NCCCCCCNC(=O)CS)[C@H](c3ccc(O)cc3)N2C1=O | 0.0799
* C=C[C@H](OC)[C@@H](O)c1ccc(OC)c(O)c1 | 0.0143
